biological target: human MCHR1 (Homo sapiens); construct: expressed in transfected cells; host or cells: CHO dhfr- cells, clone #4; experiment: MCH receptor 1 antagonistic activity, Ca2+ mobilization assay; format: cell-based; conditions: CHO, test compound 0.1 μM; human MCHR1-expressing CHO cells (clone #4); ligand MCH(4-19) 2 nM; read-out: Inhibitory rate % (0.1 μM)
Sequence (Q99705 whole entry): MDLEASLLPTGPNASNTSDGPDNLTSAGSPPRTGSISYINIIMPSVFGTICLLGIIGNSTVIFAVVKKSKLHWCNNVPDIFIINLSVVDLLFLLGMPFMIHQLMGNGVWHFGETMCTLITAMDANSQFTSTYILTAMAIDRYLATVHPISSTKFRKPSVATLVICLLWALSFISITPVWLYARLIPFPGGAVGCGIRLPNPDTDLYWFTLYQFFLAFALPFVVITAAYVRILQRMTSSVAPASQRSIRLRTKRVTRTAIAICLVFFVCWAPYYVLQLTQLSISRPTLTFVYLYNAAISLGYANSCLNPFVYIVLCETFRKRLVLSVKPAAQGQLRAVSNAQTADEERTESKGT
property: inhibition at 0.1 µM (%)

CC(=O)c1nc2ccc(-n3ccc(OCc4ccc(F)cc4)cc3=O)cc2n1C ... 84
Cn1c(C2CC2)nc2ccc(-n3ccc(OCc4csc(C(F)(F)F)n4)cc3=O)cc21 ... 73
Cc1nc2ccc(-n3ccc(OCc4ccc(Cl)cc4)cc3=O)cc2n1C ... 101
Cn1c(C2CC2)nc2ccc(-n3ccc(OCc4ccccc4)cc3=O)cc21 ... 100
